- measurement.target: T1, Tyro3 ECD FNIII 1-FNIII-2
- T1 construct: also called FNIII 1 + FNIII 2 fragment of hTyro3 ECD, His-Strep tagged
- T1 fragment: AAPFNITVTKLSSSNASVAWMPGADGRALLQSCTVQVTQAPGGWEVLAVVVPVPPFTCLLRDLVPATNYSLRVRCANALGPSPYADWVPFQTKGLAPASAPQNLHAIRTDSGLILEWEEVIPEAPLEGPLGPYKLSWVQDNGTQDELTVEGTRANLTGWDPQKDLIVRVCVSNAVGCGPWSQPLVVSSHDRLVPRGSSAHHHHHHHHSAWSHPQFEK
- protocol: sandwich ELISA, Strep-tagged fragment captured on StrepMAB plate, scFv 10 µg/mL (Table 17), anti-FLAG-HRP
quantity.kind: binding result

[[record]]
binder = "anti-Tyro3 scFv 2718 (scFv, V domains shown, Tested as a single-chain Fv made in E. coli) VH: EVQLVQSGADVKKPGASLTISCQASGYTFTDYWISWVRQKPGKGLEWMGHINPMRSTTTYGPSFQGHVTISADRSTATAYLQWHSLEASDTAMYYCVRNDNHDDYTYTDDWGPGTLVTVSS VL: SYELTQPPSVSVSPGQTARITCSGDALPKKYAYWYQQKSGQAPVLVIYEDTKRHSGIPERFSGSSSGTMATLTISGAQVEDEADYYCYSAEHRGNYAVFGGGTKLTVL"
quantity_kind = "binding result"
test_value = "binds"

